Measured target: human Fc (human)
Test summary: ELISA, negative control
Quantity name: optical density (OD)
Dear colleague, please return just the value in OD, with no unit written.

[
  {
    "Binder": "375_E03 (antibody, V domains shown) VH: EVQLLESGGGLVQPGGSLRLSCAASGFTFSDYSMNWVRQAPGKGLEWVANINYNGGYTGYADSVKGRFTISRDNSKNTLYLQMNSLRAEDTAVYYCARGANWHDTHLDYWGQGTLVTVSS VL: DIQMTQSPSSLSASVGDRVTITCRASQSILTYLNWYQQKPGKAPKLVIYAATSLASGVPSRFSGSGSGTDFTLTISSLQPEDFATYYCQQSYDNPLTFGGGTKVEIK",
    "Quantity name": "optical density",
    "Units text": "OD",
    "Measured value": 0.181
  }
]

// next entry
Summary for this binder, 374_D03 (antibody, V domains shown) VH: EVQLLESGGGLVQPGGSLRLSCAASGFTFDSYSMNWVRQAPGKGLEWVAGINYNGGYKSYADSVKGRFTISRDNSKNTLYLQMNSLRAEDTAVYYCARGANWHDTHLDYWGQGTLVTVSS VL: DIQMTQSPSSLSASVGDRVTITCRASQSIVTYLNWYQQKPGKAPKLLIYAATSRASGVPSRFSGSGSGTDFTLTISSLQPEDFATYYCQQSYDTPLTFGGGTKVEIK : optical density is 0.216

Entry source: patent US20210380703A1
